A collection of compounds and their measured IC50
Target: motilin receptor (Oryctolagus cuniculus)
Construct: from tissue; host or cells: rabbit antral smooth muscle membranes
Assay: Determination of motilin receptor binding affinity (displacement of [125I-Tyr7, Nle13]motilin(porcine))
Design: species or system rabbit
Settings: negative logarithm of the concentration displacing 50% of [125I-Tyr7, Nle13]motilin(porcine) from rabbit antral smooth muscle membranes; read-out: pIC50 (converted)
Square brackets hold non-standard residues; d marks the D form. Peptide text beside a SMILES is read from it. * marks the point of attachment. X1 = C[N+](C)(C)[C@@H](Cc1ccccc1)C(=O)*
Reply numerically in nM, unit not repeated.

CC[C@H](C)[C@H](NC(=O)[C@@H]1CCCN1C(=O)[C@@H](NC(=O)[C@H](Cc1ccccc1)[N+](C)(C)C)C(C)C)C(=O)N[C@@H](Cc1ccccc1)C(=O)N[C@H](C(=O)N[C@@H](Cc1ccc(O)cc1)C(=O)NCC(=O)N[C@@H](CCC(=O)O)C(=O)N[C@@H](CC(C)C)C(=O)N[C@@H](CCC(N)=O)C(=O)N[C@H](CCCNC(=N)N)C(=O)N[C@@H](CC(C)C)C(=O)N[C@H](CCC(N)=O)C(N)=O)[C@@H](C)O (X1-VPIFTYGELQ[dR]L[dQ]-NH2)	1.95

Let us move to another entry and its IC50.
Record CC[C@H](C)[C@H](NC(=O)[C@@H]1CCCN1C(=O)[C@@H](NC(=O)[C@@H](N)Cc1ccccc1)C(C)C)C(=O)N[C@@H](Cc1ccccc1)C(=O)N[C@H](C(=O)N[C@@H](Cc1ccccc1)C(=O)NCC(=O)N[C@@H](CCC(=O)O)C(=O)N[C@@H](CC(C)C)C(=O)N[C@@H](CCC(N)=O)C(=O)N[C@H](CCCNC(=N)N)C(=O)N[C@@H](CC(C)C)C(=O)N[C@@H](CCC(N)=O)C(=O)O)[C@@H](C)O [[Phe^7, D-Arg^12, Leu^13]pMOT(1-14)] (H-FVPIFTFGELQ[dR]LQ-OH) , field IC50: 8.51

====

Molecular target: motilin receptor (Oryctolagus cuniculus, UniProt G1T803)
Construct: from tissue; host or cells: rabbit antral smooth muscle membranes
Sequence (G1T803 1-400): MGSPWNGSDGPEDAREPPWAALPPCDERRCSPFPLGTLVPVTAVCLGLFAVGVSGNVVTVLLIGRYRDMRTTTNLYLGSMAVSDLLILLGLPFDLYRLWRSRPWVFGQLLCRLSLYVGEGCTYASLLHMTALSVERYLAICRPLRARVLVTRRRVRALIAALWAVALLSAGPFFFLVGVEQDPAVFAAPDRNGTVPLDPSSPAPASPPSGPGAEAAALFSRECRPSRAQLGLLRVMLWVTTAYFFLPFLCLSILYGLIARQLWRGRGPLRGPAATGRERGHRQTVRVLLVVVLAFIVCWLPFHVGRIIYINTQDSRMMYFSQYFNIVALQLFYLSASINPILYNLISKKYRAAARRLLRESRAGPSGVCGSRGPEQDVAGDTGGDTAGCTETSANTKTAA
Assay: Determination of motilin receptor binding affinity (displacement of [125I-Tyr7, Nle13]motilin(porcine))
Design: species or system rabbit
Details: negative logarithm of the concentration displacing 50% of [125I-Tyr7, Nle13]motilin(porcine) from rabbit antral smooth muscle membranes; read-out: pIC50 (converted)
Where a name gives a salt, the structure may show the parent alone. Square brackets hold non-standard residues; d marks the D form. Peptide text beside a SMILES is read from it. NMeF = CN[C@@H](Cc1ccccc1)C(=O)O
recorded_metric: IC50 (nM)
Reply numerically in nM, unit not repeated.

Record CC[C@H](C)[C@H](NC(=O)[C@H](C)NC(=O)[C@@H](NC(=O)[C@H](Cc1ccccc1)NC)C(C)C)C(=O)N[C@@H](Cc1ccccc1)C(=O)N[C@H](C(=O)N[C@@H](Cc1ccc(O)cc1)C(=O)NCC(=O)N[C@@H](CCC(=O)O)C(=O)N[C@@H](CC(C)C)C(=O)N[C@@H](C)C(=O)N[C@H](CCCNC(=N)N)C(=O)N[C@@H](CC(C)C)C(=O)N[C@H](CCCCN)C(N)=O)[C@@H](C)O [Tris-trifluoroacetate Salt] (H-[NMeF]VAIFTYGELA[dR]L[dK]-NH2) , field IC50: 0.447

Record CC[C@H](C)[C@H](NC(=O)[C@@H]1CCCN1C(=O)[C@@H](NC(=O)[C@H](Cc1ccccc1)NC)C(C)C)C(=O)N[C@@H](Cc1ccccc1)C(=O)N[C@H](C(=O)N[C@@H](Cc1ccc(O)cc1)C(=O)NCC(=O)N[C@@H](CCC(=O)O)C(=O)N[C@@H](CC(C)C)C(=O)N[C@@H](CCC(N)=O)C(=O)N[C@@H](CCCNC(=N)N)C(=O)N[C@@H](CC(C)C)C(=O)N[C@@H](CCC(N)=O)C(=O)O)[C@@H](C)O [[N-MePhe^1, Leu^13]pMOT(1-14)] (H-[NMeF]VPIFTYGELQRLQ-OH) , field IC50: 2.63
